# assay-system: UniProt Q96LD8
# Sequence (Q96LD8 whole entry): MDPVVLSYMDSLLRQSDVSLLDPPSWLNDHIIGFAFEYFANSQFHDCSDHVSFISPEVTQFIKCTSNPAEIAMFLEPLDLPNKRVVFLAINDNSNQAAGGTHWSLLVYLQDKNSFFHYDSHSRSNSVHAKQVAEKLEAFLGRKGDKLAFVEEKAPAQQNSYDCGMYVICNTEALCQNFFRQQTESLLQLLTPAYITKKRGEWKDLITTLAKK
# test-name: SENP8 protease inhibitors, SAR follow-up, biochemical, luminescence (AID 504501)
# Type: functional
Activity calls are given as the source filed them.
Respond using exactly one of the listed classes: y (active), n (inactive)

Q. Hey, what did the test say about `COc1ccc2c(C#N)c3ccccn3c2c1` ?
A. n

Q. Any idea what this test logged for `COc1ccc(C(=O)NN=c2c(=O)c3ccccc3c2=O)cc1` ?
A. n

Q. Hi, do you know how `Fc1ccc(N/N=C/c2c[nH]c3ccccc23)cc1` came out in this test?
A. y

Q. Recorded call for `O=C(Nc1ccc(F)cc1)c1ccc2c(c1)OCO2` ?
A. y

Q. State the result this test recorded for `O=C(O)CCN1C(=O)/C(=C/c2cccc(OCC(=O)Nc3ccc(Cl)cc3)c2)SC1=S` .
A. y

----------
# assay-system: UniProtKB P08684
# Sequence (P08684 whole entry): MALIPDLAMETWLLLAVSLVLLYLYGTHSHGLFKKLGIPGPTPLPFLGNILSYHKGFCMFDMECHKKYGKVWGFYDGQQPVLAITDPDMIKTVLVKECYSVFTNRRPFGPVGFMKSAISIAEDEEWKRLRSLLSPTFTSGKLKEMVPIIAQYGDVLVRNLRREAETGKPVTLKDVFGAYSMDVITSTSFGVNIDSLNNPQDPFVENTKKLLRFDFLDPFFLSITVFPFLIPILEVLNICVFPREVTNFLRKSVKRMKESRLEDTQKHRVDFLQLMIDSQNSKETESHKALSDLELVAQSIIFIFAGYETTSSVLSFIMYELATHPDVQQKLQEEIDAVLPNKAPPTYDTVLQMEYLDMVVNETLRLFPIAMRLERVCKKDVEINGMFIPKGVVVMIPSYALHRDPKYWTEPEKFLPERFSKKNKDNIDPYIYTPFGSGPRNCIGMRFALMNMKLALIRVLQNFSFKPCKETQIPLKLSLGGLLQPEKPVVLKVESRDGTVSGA
measurement-kind: AC50

Here is how some compounds turned out for AC50.
>>> obs_value("CCCC(=O)N1CCN(c2ccc(NC(=O)c3ccc(OCC)c([N+](=O)[O-])c3)cc2)CC1")
"inconclusive"
>>> obs_value("Cn1c(=O)c(-c2ccc(Cl)cc2)nc2cnc(N3CCOCC3)nc21")
"inconclusive"
>>> obs_value("C[C@H](O/N=C1/[C@H]2O[C@@H]2[C@@H](O)[C@H]2[C@H]1CCn1c(=O)n(-c3ccccc3)c(=O)n12)c1cn([C@H](CO)Cc2ccccc2)nn1")
"3.98 µM (inconclusive)"
>>> obs_value("Cc1cc(N2CCOCC2)nc2ccc(Cc3ccc4nc(N5CCOCC5)cc(C)c4c3)cc12")
"inconclusive"
>>> obs_value("O=C(NCCCN1CCC(Cc2ccccc2)CC1)C1CCN(S(=O)(=O)N2CCOCC2)CC1")
"inconclusive"

Q. Could you tell me which AC50 is on file for `COc1ccc(NC(=O)N2CCC3(CC2)CCN(C(=O)c2cccc(F)c2)CC3)cc1` ?
A. inconclusive

Q. GET /values?readout=AC50&item= `CCOc1ccccc1CNCCN1CCOCC1.Cl`
A. inconclusive

----------
Task for the reader: assign each of the following compounds its reported AC50.

Q. Give AC50 (Cytochrome P450 2C9 (Homo sapiens)) of the following compound: `Cc1noc(C)c1CS(=O)(=O)c1ccc(Br)cc1`
A. 31.6 µM (inconclusive)

Q. GET /values?readout=AC50&system=Cytochrome P450 2C9 (Homo sapiens)&item= `CCCn1nnnc1-c1cccc(Cl)c1`
A. 1.26 µM (inconclusive)

Q. Form: Entry = `c1csc(CN2CCCC3(CCNCC3)C2)n1` | System = Cytochrome P450 2C9 (Homo sapiens) | AC50 = ____
A. 31.6 µM (inconclusive)

Q. Record `COc1cc(/C=C/C(=O)O)cc(S(=O)(=O)NCCCO)c1OC` : what is its AC50 with Cytochrome P450 2C9 (Homo sapiens)?
A. 10 µM (inconclusive)

Q. Fill in the recorded AC50 for this compound, with Cytochrome P450 2C9 (Homo sapiens) as test system: `CNc1ncc(C(=O)c2ccccc2)s1`
Sequence (P11712 whole entry): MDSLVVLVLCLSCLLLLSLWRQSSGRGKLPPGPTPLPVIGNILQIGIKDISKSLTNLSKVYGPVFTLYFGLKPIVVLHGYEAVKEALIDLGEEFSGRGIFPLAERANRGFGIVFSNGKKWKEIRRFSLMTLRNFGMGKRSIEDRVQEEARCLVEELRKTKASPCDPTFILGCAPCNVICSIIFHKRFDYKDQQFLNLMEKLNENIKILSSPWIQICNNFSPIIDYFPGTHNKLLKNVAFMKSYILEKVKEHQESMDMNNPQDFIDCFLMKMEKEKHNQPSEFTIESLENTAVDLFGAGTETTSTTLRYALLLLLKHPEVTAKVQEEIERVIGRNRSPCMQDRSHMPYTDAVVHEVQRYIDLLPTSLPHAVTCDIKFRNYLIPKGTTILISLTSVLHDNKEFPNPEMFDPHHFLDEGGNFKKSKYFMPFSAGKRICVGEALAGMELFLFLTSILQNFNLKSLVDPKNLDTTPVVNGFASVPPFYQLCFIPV
A. 7.94 µM (inconclusive)

Q. Test system Cytochrome P450 2C9 (Homo sapiens); read-out AC50; what value for `Cc1nnc(NC(=O)c2cccc(NC(=O)C(C)C)c2)s1` ?
A. 25.1 µM (inconclusive)

Q. Form field - read-out: AC50; system: Cytochrome P450 2C9 (Homo sapiens); submitted item: `CCNC(=O)NC(=O)CSc1nc2ccccc2n1CC(C)C`
A. 20 µM (inconclusive)

Q. Lab note: need AC50 for `Nc1cccc2cnccc12` on Cytochrome P450 2C9 (Homo sapiens), anyone have it?
A. 28.2 µM (inconclusive)

Q. Recorded AC50 for `COc1ncc2nc(CCc3ccccc3)c(=O)n(-c3ccccc3)c2n1` with Cytochrome P450 2C9 (Homo sapiens), please?
A. 25.1 µM (inconclusive)

Q. Missing value: AC50, Cytochrome P450 2C9 (Homo sapiens), entry `COCCNC(=O)c1ccc2c(c1)ncn2-c1ccc(F)c(F)c1` . Fill in?
A. 17.8 µM (inconclusive)

Q. Please state recorded AC50 (tested on Cytochrome P450 2C9 (Homo sapiens)) of `COC(=O)[C@@H]1C[C@H]1[C@@H](NC(=O)c1cc(C)on1)c1ccccc1`
A. 39.8 µM (inconclusive)

Q. Query for Cytochrome P450 2C9 (Homo sapiens): what AC50 does the record show for `Cc1nc2sccc2c(=O)n1-c1cccc(Cl)c1` ?
A. 20 µM (inconclusive)

Q. Value wanted: AC50 (Cytochrome P450 2C9 (Homo sapiens)) of entry `Cc1cc(=O)oc(C)c1C(=O)NCc1cccnc1`
A. 3.16 µM (inconclusive)

Q. Can you look up AC50 on Cytochrome P450 2C9 (Homo sapiens) for `COc1ccc(-n2c(=O)c(CCc3ccccc3)nc3cncnc32)cc1` ?
A. 20 µM (inconclusive)

Q. Request - read-out AC50 | tested on Cytochrome P450 2C9 (Homo sapiens) | compound `NCCc1c[nH]c2ccc(OC(=O)C(=O)O)cc12`
A. 3.98 µM (inconclusive)

Q. API: value(readout=AC50, system=Cytochrome P450 2C9 (Homo sapiens)) for record `S=C(NCCSCc1c(Cl)cccc1Cl)Nc1ccccc1`
A. 10 µM (inconclusive)

Q. Query AC50 on Cytochrome P450 2C9 (Homo sapiens) for `CCOC(=O)c1sc(C)c(C(=O)NCC(C)(C)CN(C)C)c1N`
A. 39.8 µM (inconclusive)

Q. Lookup: AC50 / Cytochrome P450 2C9 (Homo sapiens) / COc1cc2c(cc1OC)C(C(=O)Nc1cccc(C)n1)C(c1cccnc1)N(C)C2=O (centres undefined)
A. 0.00562 µM (inconclusive)

Q. Look up AC50 with Cytochrome P450 2C9 (Homo sapiens) for this compound: `CCNc1ncc2nc(-c3ccccc3)c(=O)n(CCc3ccccc3)c2n1`
A. 1.26 µM (inconclusive)
